Numbers sourced from patent US9790169B2.

system-tested: human IDO1 (Homo sapiens, UniProt P14902)
Sequence (P14902 whole entry): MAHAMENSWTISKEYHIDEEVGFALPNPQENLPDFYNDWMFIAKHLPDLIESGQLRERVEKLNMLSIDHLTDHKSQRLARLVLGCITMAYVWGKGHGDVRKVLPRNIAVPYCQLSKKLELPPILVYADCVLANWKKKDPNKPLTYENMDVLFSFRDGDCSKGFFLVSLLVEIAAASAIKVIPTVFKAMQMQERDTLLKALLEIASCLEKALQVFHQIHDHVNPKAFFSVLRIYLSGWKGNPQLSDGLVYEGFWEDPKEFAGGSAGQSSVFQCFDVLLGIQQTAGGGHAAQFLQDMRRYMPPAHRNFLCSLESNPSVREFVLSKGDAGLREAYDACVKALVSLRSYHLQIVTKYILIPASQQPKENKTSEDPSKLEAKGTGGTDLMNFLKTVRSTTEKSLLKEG
assay-remarks: Assessment of human IDO-1 inhibitory activity in HEK cells (human IDO1/HEK293 cells, kynurenine read-out with Ehrlich reagent, absorbance 490 nm)
Type: cell-based
Parameters: expressed in transfected cells
condition-description: HEK Human IDO-1 cellular assay
metric-name: IC50

Some solved cases for reference:
# compound, system-tested, IC50
rows = [
    ("CCN(c1ccc([C@@H](COC)CC(=O)O)cc1Nc1ccc(C)cc1)C1CCOCC1 (single isomer, unassigned) [Example 373]", "human IDO1 (Homo sapiens, UniProt P14902)", "< 5 nM"),
    ("CCOc1ncc(Nc2cc(C(C)CC(=O)O)ccc2N(CC(C)(C)O)C2CCOCC2)cn1 (single isomer, unassigned) [Example 191]", "human IDO1 (Homo sapiens, UniProt P14902)", "> 50 nM"),
]

Consider the additional compound presented here.
Q: Which IC50 value belongs to CCN(c1ccc(C(CC(=O)O)c2ccccc2)cc1Nc1ccc(Cl)cc1)C1CCOCC1 (single isomer, unassigned) [Example 590] ?
Result: < 50 nM

###

system-tested: UniProt P14902
assay-remarks: Assessment of human IDO-1 inhibitory activity in Hela cells (Interferon-gamma stimulated HeLa cells, Ehrlich reagent, absorbance 490 nm)
Type: cell-based
Parameters: endogenous in cells; host or cells: HeLa cells stimulated with interferon-gamma
condition-description: Hela Human IDO-1 cellular assay
Experimental: Exemplary compounds were tested for inhibition of IDO activity. Assessment of Human IDO-1 Inhibitory Activity in Hela Cells HeLa cells were seeded at 20,000 cells per 30 μL per well with RPMI/phenol red free media containing 10% FBS in a 384-well tissue culture plate (black with clear bottoms). […] Compound treatment was stopped by adding 5 μl trichloroacetic acid to a final concentration of 3%. […] Absorbance at 490 nm was measured on Envision plate reader. […]
pIC50: −log10 of the molar value.
As shown below, each of these compounds has a reported pIC50 value.

# compound, pIC50
data = [
    ("COCC(CC(=O)O)c1ccc(N2CCOC[C@@H]2C(C)C)c(Nc2ccc(C#N)cc2)c1 (single isomer, unassigned) [Example 929]", "> 7.30"),
    ("CCCN(c1ccc([C@H](COC)CC(=O)O)cc1Nc1ccc(OC)nc1)C1CCOCC1 (single isomer, unassigned)", "> 7.30"),
]

Q: Which pIC50 value belongs to COCC(CC(=O)O)c1ccc(N2CCOC[C@@H]2C(C)C)c(Nc2ccc(C#N)cc2)c1 (single isomer, unassigned) [Example 933] ?
Result: < 7.30

###

As shown below, each of these compounds has a reported pIC50 value.
system-tested: UniProt P14902
assay-remarks: Assessment of human IDO-1 inhibitory activity in HEK cells (human IDO1/HEK293 cells, kynurenine read-out with Ehrlich reagent, absorbance 490 nm)
Assay type: cell-based
Parameters: expressed in transfected cells
condition-description: HEK Human IDO-1 cellular assay
pIC50: −log10 of the molar value.

Some solved cases for reference:
# compound, system-tested, pIC50
rows = [
    ("CCOc1ncc(Nc2cc([C@H](CC)CC(=O)O)ccc2N(CC)C2CCCCC2)cn1 (single isomer, unassigned)", "UniProt P14902", "> 8.30"),
    ("CC[C@@H](CC(=O)O)c1ccc(N(CC)C2CCOCC2)c(Nc2ccn3nc(C)c(F)c3n2)c1 (single isomer, unassigned)", "UniProt P14902", "< 7.30"),
    ("CCN(c1ccc([C@@H](COC)CC(=O)O)cc1NC(=O)Nc1ccc(OC)cc1F)C1CCOCC1 (single isomer, unassigned)", "UniProt P14902", "< 7.30"),
    ("CCC(CC(=O)O)c1cc(NC(=O)Nc2ccc(C)cc2)c(N(CC(C)C)C2CCCCC2)cc1F (racemic) [Example 951]", "UniProt P14902", "> 8.30"),
    ("CCOc1ncc(Nc2cc([C@@H](CC)CC(=O)O)ccc2N(CC)C2CCCCC2)cn1 (single isomer, unassigned)", "UniProt P14902", "> 7.30"),
]

Consider the additional compound presented here.
Q: Notebook: pull reported pIC50 for UniProt P14902, entry CC[C@H](CC(=O)O)c1ccc(N(CC)C2CCCCC2)c(Nc2ccc(OC(F)F)cc2)c1 (single isomer, unassigned)
Result: > 8.30
